These data points were gathered from PubChem BioAssay (NCI).

System: HCT-116 colon
assay_remarks: NCI tumour cell line growth inhibition, 48 h
assay_endpoint: TGI (µM)
State just the number; it will be interpreted in µM.

Solved cases below.
- compound: "O=C1C2C(C(=O)[N]1[Hg][c]1cccs1)C1(Cl)C(Cl)=C(Cl)C2(Cl)C1(Cl)Cl (stereo not given)"
  TGI / µM: 2.54
- compound: "CC(C)c1c(C(=O)Nc2ccccc2)c(-c2ccccc2)c(-c2ccc(F)cc2)n1CC[C@@H]1CC=CC(=O)O1"
  TGI / µM: 1.23
- compound: "NC(=O)C#CC#CC#CCO"
  TGI / µM: 2.59
- compound: "CC(=O)c1c(SCCN2CCCC2)n(-c2ccccc2)c(=S)n(-c2ccccc2)c1=O"
  TGI / µM: 18.6
- compound: "COc1cc2c(cc1O)-c1c(cnn1-c1ccc([N+](=O)[O-])cc1)CCC2"
  TGI / µM: 71.4

Indicate the recorded TGI value for this compound: "CCCCCCNC(=O)c1cc(CCc2cc(O)ccc2O)ccc1O"
13.6

Indicate the recorded TGI value for this compound: "O=c1cc(-c2ccccc2)oc2cc(O)c(O)c(O)c12"
31.8

Indicate the recorded TGI value for this compound: c1ccc(C2CC(c3cccc(Nc4ccncc4)c3)=NN2c2ccccc2)cc1 (stereo not given)
3.25

Indicate the recorded TGI value for this compound: "CCCCCc1nc2c(c3c1CCCC3)CCCC2"
15.2

Indicate the recorded TGI value for this compound: Cc1cc2c(cc1Cl)SC(c1ccccc1)C(=O)NS2(=O)=O (stereo not given)
45.6

###

Test system: A498 renal
assay_remarks: NCI tumour cell line growth inhibition, 48 h
# GI50 per record follows

Solved cases below.
- compound: "COc1cc2c(cc1OCCCCCOc1cc3c(cc1OC)C(=O)N1CC(F)C[C@H]1C=N3)N=C[C@@H]1CC(F)CN1C2=O (some centres undefined)"
  result: "0.0863 µM"
- compound: "O=c1c2ccccc2c(Br)c(Br)c2ccccc12"
  result: "5.37 µM"
- compound: "CN(c1cc2ncc(=O)[nH]c2cc1NC(N)=NCc1ccc(Cl)cc1)C1CCCCC1"
  result: "8.04 µM"
- compound: "CN(CCCCCl)P(=O)(OCc1ccc([N+](=O)[O-])o1)OCC1OC(n2ccc(N)nc2=O)C(F)(F)C1O (centres undefined)"
  result: "5.8 µM"
- compound: "CCOc1ccccc1NC(=O)c1cc2ccccc2cc1O"
  result: "2.16 µM"
- compound: "CC(C)[C@H]1CC[C@H]2[C@@H](CC[C@H]3[C@](C)(CN)CCC[C@]23C)C1"
  result: "13.2 µM"
- compound: "O=C1C2C(C(=O)[N]1[Hg][c]1cccs1)C1(Cl)C(Cl)=C(Cl)C2(Cl)C1(Cl)Cl (centres undefined)"
  result: "2.29 µM"
- compound: "Cn1cc(C2=C(c3cn(CCO)c4ccccc34)C(=O)NC2=O)c2ccccc21"
  result: "1.45 µM"
- compound: "Cc1ccc(NC(=O)Cc2ccc(/C=C/C(=O)c3ncc[nH]3)cc2)cc1"
  result: "19.9 µM"
- compound: "COc1cccc(C2C3=C(COC3=O)N(CCO)c3cc(OC)ccc32)c1 (centres undefined)"
  result: "0.0367 µM"

Under A498 renal: report GI50 of "N/C(=C\C(=O)n1nc(-c2ccccc2)cc1N)c1ccccc1" .
2.77 µM

Under A498 renal: report GI50 of "N=C(N)c1ccc(OCCOCCOc2ccc(C(=N)N)cc2)cc1" .
63.7 µM

Under A498 renal: report GI50 of "Cc1ccc2c(c1)c1nc3cc(C)c(C)cc3nc1n2CCN(C)C" .
1.77 µM

Under A498 renal: report GI50 of "Cc1cc(NCCCNc2ccnc3cc(Cl)ccc23)nc(N2CCN(C)CC2)n1" .
14.4 µM
